Test system: PXR:RXRa (NR concentration 270 nM, RXRa partner concentration 90 nM)
Experiment: PBM binding z-score (relative to random genomic background probes); higher = stronger binding; sequences stand for … in GC…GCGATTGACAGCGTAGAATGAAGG
Catalogue of PBM binding z-score values
# respond with the number and nothing more

# count of solved cases: 8
sequence.text | PBM binding z-score
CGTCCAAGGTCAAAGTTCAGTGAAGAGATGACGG | 6.59
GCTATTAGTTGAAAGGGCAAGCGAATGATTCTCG | 0.469
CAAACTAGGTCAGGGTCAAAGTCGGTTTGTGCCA | 4.81
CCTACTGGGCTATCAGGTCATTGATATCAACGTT | 1.33
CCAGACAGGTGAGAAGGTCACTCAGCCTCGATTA | 3.25
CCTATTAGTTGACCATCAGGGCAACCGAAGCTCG | 0.0854
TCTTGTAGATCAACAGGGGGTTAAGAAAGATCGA | 2.5
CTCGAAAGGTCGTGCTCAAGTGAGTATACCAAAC | 3.15

Consider the sequence shown here: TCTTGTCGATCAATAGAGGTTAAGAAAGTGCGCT What is its recorded PBM binding z-score?
2.97

// repeat for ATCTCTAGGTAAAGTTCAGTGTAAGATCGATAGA and report
2.21

// repeat for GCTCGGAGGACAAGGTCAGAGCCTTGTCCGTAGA and report
1.46

// repeat for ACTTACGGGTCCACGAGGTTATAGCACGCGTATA and report
1.48

// repeat for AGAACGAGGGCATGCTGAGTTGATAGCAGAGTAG and report
1.14

// repeat for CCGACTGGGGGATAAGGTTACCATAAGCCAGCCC and report
1.15

// repeat for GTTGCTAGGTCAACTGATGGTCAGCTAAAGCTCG and report
1.47

// repeat for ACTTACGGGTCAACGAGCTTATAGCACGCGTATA and report
3.19

----------
Test system: PPARg:RXRa 30nM:10nM, anti-RXR (NR concentration 30 nM, RXRa partner concentration 10 nM)
Test: PBM binding z-score (relative to random genomic background probes); higher = stronger binding; sequences stand for … in GC…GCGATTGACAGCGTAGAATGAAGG
Catalogue of PBM binding z-score values

sequence.text | target.entity | PBM binding z-score
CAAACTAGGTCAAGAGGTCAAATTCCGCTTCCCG | PPARg:RXRa 30nM:10nM, anti-RXR (NR concentration 30 nM, RXRa partner concentration 10 nM) | 7.02

What is its PBM binding z-score for PPARg:RXRa 30nM:10nM, anti-RXR (NR concentration 30 nM, RXRa partner concentration 10 nM)? Entry: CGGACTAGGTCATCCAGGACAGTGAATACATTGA
3.03

----------
Test system: PPARg DBDmut:RXRa IVT, anti-PPARg (DBD mutation: PPARg1 K132A/R137A, NR concentration 270 nM, RXRa partner concentration 90 nM)
Assay: PBM binding z-score (relative to random genomic background probes); higher = stronger binding; sequences stand for … in GC…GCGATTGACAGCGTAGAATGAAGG
observed.property: PBM binding z-score
# respond with the number and nothing more

sequence.text | readout.value
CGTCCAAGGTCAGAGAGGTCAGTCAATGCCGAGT | -0.282
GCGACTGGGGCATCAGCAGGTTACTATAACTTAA | -0.371
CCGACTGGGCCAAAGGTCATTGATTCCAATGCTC | -0.642
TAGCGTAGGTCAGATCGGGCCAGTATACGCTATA | -0.164

Consider the sequence shown here: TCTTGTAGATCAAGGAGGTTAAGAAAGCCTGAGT What is its recorded PBM binding z-score?
0.58

// repeat for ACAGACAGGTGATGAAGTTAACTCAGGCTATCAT and report
0.864

// repeat for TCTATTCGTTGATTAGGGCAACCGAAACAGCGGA and report
1.2
